Numbers sourced from ChEMBL document CHEMBL5729608.

Target: Voltage-gated inwardly rectifying potassium channel KCNH2 (Homo sapiens)
Sequence (Q12809 whole entry): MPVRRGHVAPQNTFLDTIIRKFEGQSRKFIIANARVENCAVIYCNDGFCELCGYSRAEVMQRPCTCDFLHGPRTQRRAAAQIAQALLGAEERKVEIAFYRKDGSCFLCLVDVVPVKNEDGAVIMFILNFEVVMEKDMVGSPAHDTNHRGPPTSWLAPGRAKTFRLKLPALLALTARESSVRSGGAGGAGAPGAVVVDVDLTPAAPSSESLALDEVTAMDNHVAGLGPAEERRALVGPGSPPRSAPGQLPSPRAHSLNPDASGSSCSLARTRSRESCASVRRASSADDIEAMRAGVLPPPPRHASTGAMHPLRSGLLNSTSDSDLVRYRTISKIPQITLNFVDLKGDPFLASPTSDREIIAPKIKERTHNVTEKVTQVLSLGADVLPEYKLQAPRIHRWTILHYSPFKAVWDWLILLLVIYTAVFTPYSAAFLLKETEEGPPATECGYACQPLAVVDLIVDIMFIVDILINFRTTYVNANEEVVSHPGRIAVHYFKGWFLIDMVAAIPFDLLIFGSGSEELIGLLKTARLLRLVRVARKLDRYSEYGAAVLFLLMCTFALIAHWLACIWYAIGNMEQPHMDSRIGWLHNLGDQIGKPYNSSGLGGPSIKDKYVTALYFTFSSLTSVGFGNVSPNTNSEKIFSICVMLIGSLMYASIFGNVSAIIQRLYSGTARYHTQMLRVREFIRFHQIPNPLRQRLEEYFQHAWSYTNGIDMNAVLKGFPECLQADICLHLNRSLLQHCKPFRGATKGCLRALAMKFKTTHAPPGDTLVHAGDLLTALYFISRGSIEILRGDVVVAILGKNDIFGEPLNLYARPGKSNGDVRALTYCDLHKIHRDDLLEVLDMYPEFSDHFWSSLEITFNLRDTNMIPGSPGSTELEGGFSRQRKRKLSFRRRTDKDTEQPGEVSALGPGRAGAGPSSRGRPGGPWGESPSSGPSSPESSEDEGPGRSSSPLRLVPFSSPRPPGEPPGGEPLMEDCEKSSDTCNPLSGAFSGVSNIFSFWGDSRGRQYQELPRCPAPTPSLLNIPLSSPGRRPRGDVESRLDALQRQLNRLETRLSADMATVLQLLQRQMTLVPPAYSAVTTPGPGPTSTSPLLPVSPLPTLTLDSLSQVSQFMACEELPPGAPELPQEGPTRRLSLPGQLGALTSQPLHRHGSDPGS
Assay: hERG Inhibition Assay: Compounds were solubilised to 100 mM in DMSO before dilution in HBPS to 300 μM. 6-Point concentration-response curves were generated using 3.16-fold serial dilutions from the top test concentration. Procedure: Electrophysiological recordings were made from a Chinese Hamster Ovary cell line stably expressing the full-length hERG potassium channel. Single cell ionic currents were measured in whole-cell patch clamp configuration at room temperature (21-23° C.) using the QPatch HTX platform (Sophion). Intracellular solution contained (mM): 120 KF, 20 KCl, 10 EGTA, 10 HEPES and was buffered to pH 7.3. The extracellular solution (HEPES-buffered physiological saline, HBPS) contained (mM): 145 NaCl, 4 KCl, 2 CaCl2, 1 MgCl2, 10 HEPES, 10 glucose, buffered to pH7.4. Cells were clamped at a holding potential of −80 mV. Cells were stepped to +20 mV for 2 s then −40 mV for 3s before returning to the holding potential. This sweep was repeated 10 times at 10 s intervals. hERG currents were measured from the tail step and referenced to the holding current.
MEASURE: IC50 (µM)
Answers are plain numbers, in µM.

Entry Cn1c(=O)cnc2cc(F)c(OCCNC[C@H]3CN(c4cnc5c(n4)NC(=O)CO5)C(=O)O3)nc21 — recorded IC50 = 98
